Measured Percent Inhibition of CXCL12 Mediated Migration (1.1 µM Test Article; Jurkat cells) by item
- SYSTEM: CXCR4 on cultured U937 and Jurkat cells (human, UniProt P61073 1-352)
- Sequence (P61073 whole entry): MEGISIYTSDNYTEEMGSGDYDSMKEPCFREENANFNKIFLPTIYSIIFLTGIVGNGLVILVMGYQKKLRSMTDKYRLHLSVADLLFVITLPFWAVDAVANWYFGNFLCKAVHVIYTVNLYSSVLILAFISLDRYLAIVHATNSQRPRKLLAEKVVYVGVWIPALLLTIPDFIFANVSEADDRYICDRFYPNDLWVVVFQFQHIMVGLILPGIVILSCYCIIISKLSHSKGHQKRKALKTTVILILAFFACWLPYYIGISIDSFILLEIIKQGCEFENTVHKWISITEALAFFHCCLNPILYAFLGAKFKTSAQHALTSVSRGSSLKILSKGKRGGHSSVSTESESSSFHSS
- EXPERIMENT: cell-based or functional assay
Square brackets hold non-standard residues; d marks the D form. Ends that are not written are not given here.
State the answer as a number, implicitly in %.

input: Any idea what its Percent Inhibition of CXCL12 Mediated Migration (1.1 µM Test Article; Jurkat cells) is? The binder is LERYHHS[dA]RSSLRPYTK-NH2 (N-terminus assumed; SMILES CC(C)C[C@H](NC(=O)[C@H](CO)NC(=O)[C@H](CO)NC(=O)[C@H](CCCNC(=N)N)NC(=O)[C@@H](C)NC(=O)[C@H](CO)NC(=O)[C@H](Cc1c[nH]cn1)NC(=O)[C@H](Cc1c[nH]cn1)NC(=O)[C@H](Cc1ccc(O)cc1)NC(=O)[C@H](CCCNC(=N)N)NC(=O)[C@H](CCC(=O)O)NC(=O)[C@@H](N)CC(C)C)C(=O)N[C@@H](CCCNC(=N)N)C(=O)N1CCC[C@H]1C(=O)N[C@@H](Cc1ccc(O)cc1)C(=O)N[C@H](C(=O)N[C@@H](CCCCN)C(N)=O)[C@@H](C)O) [SEQ ID NO: 57]
output: 30

input: Record: LRRFHHSVRSSLRPYTK [SEQ ID NO: 53]
output: 59

input: Record: LRRYHHSVRSSLRGYTK [SEQ ID NO: 79]
output: 36

input: Record: LERYHHSVRTSLRPYTK [SEQ ID NO: 73]
output: 82

input: Record: LERYHHSVRSSLRPYSK [SEQ ID NO: 75]
output: 81

# next binder below
input: Any idea what its Percent Inhibition of CXCL12 Mediated Migration (1.1 µM Test Article; Jurkat cells) is? The binder is LERYHHSVRSSLRGYTK [SEQ ID NO: 80]
output: 71
